The origin of these recorded values is the supplement of paper PMC6555819.

PBM binding z-score values for the sequences below.
# Tested on: VDR:RXRa (NR concentration 270 nM, RXRa partner concentration 90 nM)
# assay.text: PBM binding z-score (relative to random genomic background probes); higher = stronger binding; sequences stand for … in GC…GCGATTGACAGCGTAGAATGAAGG
API doc: respond with a numeric literal and nothing else, no unit.

Solved entries:
biosequence	reported.metric	test.value
ACTTACGGGTCAACTAGGTTATAGCACGCGTATA	PBM binding z-score	5.88
AGTCAAAGTTCAGGACGAGGTAACGTATAGCACG	PBM binding z-score	3.14
TTACCAAGGTGAGCTGAGGTCGTAGATCCAACTC	PBM binding z-score	3.45
TCGAGTAGGTTACCAATGGGGCATTCATCTTTCT	PBM binding z-score	0.117
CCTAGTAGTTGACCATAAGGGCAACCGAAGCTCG	PBM binding z-score	0.633
ATATGTACGTTATCGGGTCATTCAGTTTGCGCAT	PBM binding z-score	5.03
TCTTGTAGATCAGCAGTTTAAGAAAGCTGGCCAA	PBM binding z-score	-0.0839
CCTAGTGGGCCACGAAAGGTCATTGATTCAGTGA	PBM binding z-score	4.05

[in] Recorded PBM binding z-score for TGTCAAGGTTCAAAGGTAACGTAAGTATCCACAC , please?
[out] 4.59

[in] Recorded PBM binding z-score for CCTAGCAGGCCAGGGTCACGCAAGCATTTCGCTT , please?
[out] 3.95

[in] Recorded PBM binding z-score for CCGACTGGGGCAGAAAGTTTACCATACCATCCGG , please?
[out] 0.484

[in] Recorded PBM binding z-score for ATCTCTAGGTAAAAGTGCAGTGAATCCCGAGGAT , please?
[out] 0.00627

[in] Recorded PBM binding z-score for CGTCAAAGTTCAAGGTAACGCAACAGAAAGCAGC , please?
[out] 3.67

[in] Recorded PBM binding z-score for TCTACTTGGTCAAAGGTCACACACTCGAAATGCG , please?
[out] 5.28

[in] Recorded PBM binding z-score for GCTGCTAGGTCAACTGATGGTAAGCTAAAGCTCG , please?
[out] 1.23

###

PBM binding z-score values for the sequences below.
# System: PPARg:RXRa 270nM:90nM, anti-RXR (NR concentration 270 nM, RXRa partner concentration 90 nM)
# assay.text: PBM binding z-score (relative to random genomic background probes); higher = stronger binding; sequences stand for … in GC…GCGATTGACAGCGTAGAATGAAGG
API doc: respond with a numeric literal and nothing else, no unit.

biosequence	PBM binding z-score
CCTACTTGGCCATTCAGAGGTCATTGATCATATG	2.46
CATACAGGCTCAGCTAGGCCAGAGTAGGGACGGC	-0.549
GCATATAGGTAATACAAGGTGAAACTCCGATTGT	1.04
GCTGGTAGATCAAGGTTAAGAAAGACTAAGCTAA	1.18
CCGACTTGGGCAAGGTTACCATAACGCACAGCCA	0.417

Continue with the sequence presented below.
[in] Recorded PBM binding z-score for CCTTACGGGTCACGAGGTTATATCACGACGAGCG , please?
[out] 6.76

###

PBM binding z-score values for the sequences below.
# System: RARg:RXRa (NR concentration 270 nM, RXRa partner concentration 90 nM)
# assay.text: PBM binding z-score (relative to random genomic background probes); higher = stronger binding; sequences stand for … in GC…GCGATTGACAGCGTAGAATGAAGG

biosequence	PBM binding z-score
TCGAGTACGTTACCAATGGGGCATTCAGCTTTCT	-0.336

[in] Recorded PBM binding z-score for GATACAGGGTCAGCTAGAGGCCAGAATATGGAAA , please?
[out] 6.5

[in] Recorded PBM binding z-score for CTCGAAAGGTCGTGATCAGGTGAGTATACCAAAC , please?
[out] 4.85

[in] Recorded PBM binding z-score for GCTAGCAGGCCATTTGGGTCACTCACTGACGGGC , please?
[out] 0.722

[in] Recorded PBM binding z-score for GCGTCTGGGGCATCAGCAGGTTACCATAACTTAA , please?
[out] 0.859

[in] Recorded PBM binding z-score for GCTGCTAGGTCAACTGGTGGTCAGCTAAAGCTCG , please?
[out] 5.52

###

# System: FXR:RXRa (NR concentration 270 nM, RXRa partner concentration 90 nM)
# assay.text: PBM binding z-score (relative to random genomic background probes); higher = stronger binding; sequences stand for … in GC…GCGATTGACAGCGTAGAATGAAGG
reported.metric: PBM binding z-score
API doc: respond with a numeric literal and nothing else, no unit.

Solved entries:
biosequence	assay.target	PBM binding z-score
TAGCCTAGGTCATTCGGGCCAGTATAGTGTCGGC	FXR:RXRa (NR concentration 270 nM, RXRa partner concentration 90 nM)	4.65
GCTGCTAGGTCAACTGATGGACAGCTAAAGCTCG	FXR:RXRa (NR concentration 270 nM, RXRa partner concentration 90 nM)	3.98
TGAATGAGGTTGTAAGATCAGGGAACGTTGCAAA	FXR:RXRa (NR concentration 270 nM, RXRa partner concentration 90 nM)	-0.0998
CACACTAGGTCACCGGAAGGTCAAAGTCCGCATG	FXR:RXRa (NR concentration 270 nM, RXRa partner concentration 90 nM)	6.4
CAAACTAGGTCACCAGAAGGTCAAAGTCCGCATG	FXR:RXRa (NR concentration 270 nM, RXRa partner concentration 90 nM)	6.14

Continue with the sequence presented below.
[in] Recorded PBM binding z-score for GCGACTGGGGCAAAGCAGGTTGCCATAAGGTTGG , please?
[out] -0.377

###

# Tested on: PXR homodimer (NR concentration 270 nM)
# assay.text: PBM binding z-score (relative to random genomic background probes); higher = stronger binding; sequences stand for … in GC…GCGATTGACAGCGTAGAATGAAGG
PBM binding z-score values for the sequences below.
API doc: respond with a numeric literal and nothing else, no unit.

[in] Recorded PBM binding z-score for GCTAGCAGGCCATTCGGGTCACTCAATGACGGGC , please?
[out] 1.45

###

# Tested on: THRa:RXRa (NR concentration 90 nM, RXRa partner concentration 90 nM)
# assay.text: PBM binding z-score (relative to random genomic background probes); higher = stronger binding; sequences stand for … in GC…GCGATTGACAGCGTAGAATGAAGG
Is PBM binding z-score at least 3? Then YES. If not, NO.

These solved cases illustrate the format of a correct answer.
biosequence	assay.target	answer.label
GATACAGGGTCAGCTAGAGGCCGGAGTATGGAAA	THRa:RXRa (NR concentration 90 nM, RXRa partner concentration 90 nM)	NO
GTACCAAGGTGAATGGGTCGTTGATGAGTAGGCG	THRa:RXRa (NR concentration 90 nM, RXRa partner concentration 90 nM)	NO
CAAACTAGGTCAAGATCAAAGTCGGTTTGTGCCA	THRa:RXRa (NR concentration 90 nM, RXRa partner concentration 90 nM)	NO

[in] Threshold query (PBM binding z-score >= 3) on AATACAGGGTCACTAAGCCAGAGTAGGTACGAAT
[out] YES

[in] Threshold query (PBM binding z-score >= 3) on CCTAGTTGGTCAAGGTCATACACGCTATAGGTAC
[out] YES

[in] Threshold query (PBM binding z-score >= 3) on ACTATTAGTTGCCTTAGGGCAACCGATACGACGC
[out] NO

###

# Tested on: PPARg DBDmut IVT, anti-PPARg (DBD mutation: PPARg1 K132A/R137A, NR concentration 270 nM)
# assay.text: PBM binding z-score (relative to random genomic background probes); higher = stronger binding; sequences stand for … in GC…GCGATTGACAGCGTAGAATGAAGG
reported.metric: PBM binding z-score
API doc: respond with a numeric literal and nothing else, no unit.

Solved entries:
biosequence	PBM binding z-score
CGTGCAAGGTCAAGGTCAGTGAAAGAGACTCGAA	-0.363
TCTACTAGTTGATTAGGGCAACCGAAACAGCGGA	-0.068
TCTTGCAGATCAATAGAGGTTAAGAAAGTGCGCT	-0.0409
ACTATTAGTTGACTTAGGGCAACCAATACGACGC	0.817
ACTATTAGTTGAGACGAGCGCAACCGATAGGTTG	0.844

[in] Recorded PBM binding z-score for CCTATTAGTTCACCATAAGGGCAACCGAAGCTCG , please?
[out] 0.145

###

# Tested on: RARb homodimer (NR concentration 270 nM)
# assay.text: PBM binding z-score (relative to random genomic background probes); higher = stronger binding; sequences stand for … in GC…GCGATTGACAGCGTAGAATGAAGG
PBM binding z-score values for the sequences below.

Solved entries:
biosequence	test.value
TCTCTTAGTTGATTAGGGCAACCGAAACAGCGGA	0.99
ATCGAAAGGTCGAAGGTGAGTAAACCCACCCGAA	2.45
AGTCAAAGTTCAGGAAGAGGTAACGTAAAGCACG	3.02
AACTCTAGGTAACAAGTTCAGTGAAAGAGAGGAC	1.66
TGAATCAGGTTAAAGATCAGGGAACGTGGCGTCG	-7.29e-05

Continue with the sequence presented below.
[in] Request body: readout PBM binding z-score, system RARb homodimer (NR concentration 270 nM), query ATCCCTAGGTAACCAAGTTCAGTGAATGCCGAAC . Return the value.
[out] 1.97
